Examples of compounds with documented MIC follow.
- Test system: klebsiella pneumoniae 272
Your answer should be a plain number; it is taken to be in µg/mL.

[
  {
    "smiles notation": "CC1(C)S[C@@H]2[C@H](NC(=O)[C@H](NC(=O)Nc3cnc(N4CCOCC4)nc3O)c3ccc(O)cc3)C(=O)N2[C@H]1C(=O)O",
    "system name": "klebsiella pneumoniae 272",
    "observed measurement": 80
  },
  {
    "smiles notation": "CC1(C)S[C@@H]2[C@H](NC(=O)[C@H](NC(=O)Nc3cnc(C4CC4)nc3O)c3ccc(O)cc3)C(=O)N2[C@H]1C(=O)O",
    "system name": "klebsiella pneumoniae 272",
    "observed measurement": 80
  }
]

Provide value of MIC for this record tested with klebsiella pneumoniae 272: `CC(=O)Nc1ncc(NC(=O)N[C@@H](C(=O)N[C@@H]2C(=O)N3[C@@H]2SC(C)(C)[C@@H]3C(=O)O)c2ccc(O)cc2)c(O)n1`
80

Provide value of MIC for this record tested with klebsiella pneumoniae 272: `CCCNc1ncc(NC(=O)N[C@@H](C(=O)N[C@@H]2C(=O)N3[C@@H]2SC(C)(C)[C@@H]3C(=O)O)c2ccc(O)cc2)c(O)n1`
10
